assayed.target: Glutathione S-transferase A2 (Homo sapiens)
Sequence (P09210 whole entry): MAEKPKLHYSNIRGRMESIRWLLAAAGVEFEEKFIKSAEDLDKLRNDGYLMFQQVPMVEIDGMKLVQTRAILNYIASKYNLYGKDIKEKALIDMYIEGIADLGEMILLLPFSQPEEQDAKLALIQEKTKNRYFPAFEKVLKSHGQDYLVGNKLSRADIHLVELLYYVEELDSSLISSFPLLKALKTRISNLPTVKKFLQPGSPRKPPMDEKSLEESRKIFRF
pIC50: −log10 of the molar value.
reported.endpoint: pIC50

Asked: Any idea what pIC50 came out for CO[C@]1(C)O[C@H]2[C@H](O)C(C=O)CC(=O)[C@@H]2O[C@@]1(C)OC (stereo partly specified) on Glutathione S-transferase A2 (Homo sapiens)?
Given back: < 4.00

----------
assayed.target: Glutathione S-transferase P (Homo sapiens)
Sequence (P09211 whole entry): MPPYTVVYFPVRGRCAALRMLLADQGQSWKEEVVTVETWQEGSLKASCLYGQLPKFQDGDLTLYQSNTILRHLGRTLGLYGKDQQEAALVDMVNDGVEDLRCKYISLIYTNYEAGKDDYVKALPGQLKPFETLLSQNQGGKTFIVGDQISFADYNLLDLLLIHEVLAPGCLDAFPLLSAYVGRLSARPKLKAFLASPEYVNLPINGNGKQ
protocol.text: Inhibition of human GSTP1-1 using GSH as substrate after 3 mins by spectrophotometry
pIC50: −log10 of the molar value.
reported.endpoint: pIC50

Asked: Tell me the measured pIC50 of CO[C@H]1CC(COC(C)=O)C(=O)C(=O)[C@H]1O (stereo partly specified) , please.
Given back: < 4.00

# credit: BindingDB's records for doi:10.1021/jm201131n
